test system: HeLa cells; test: Anti-proliferative activity, HeLa cervical carcinoma cells (Coulter counting); assay type: cell-based; settings: Homo sapiens, 72 h, read-out: Tumor cells IC50 HeLa
valueKind: IC50 (nM)
Number in nM, nothing else.

Query: Fill blank: measured IC50 of the molecule CCOc1ccccc1NC(C)=C1C(=O)CC(c2ccccc2)CC1=O (centres unmarked) is ____.
Response: 180

Query: # input molecule: COc1ccc(/C=C\c2cc(OC)c(OC)c(OC)c2)cc1OP(=O)(O)O [CA-4P, reference compound] ; wanted: its IC50
Response: 13

----------
test system: HMEC-1 cells; assay: Anti-proliferative activity, HMEC-1 microvascular endothelial cells (Coulter counting); type: cell-based; conditions: Homo sapiens, HMEC-1, 96 h; mean ± SD of three independent experiments; 4 days; read-out: Endothelial cells IC50 HMEC-1
valueKind: pIC50
Quick note: pIC50 means taking -log10 of the concentration in moles per liter.

Query: Would you kindly share the measured pIC50 for CC(Nc1cccc2cc(CO)oc12)=C1C(=O)CC(c2ccccc2)CC1=O (stereo not drawn) [Compound 22] ?
Response: 6.82

Query: So what's the measured pIC50 for this one? COC(=O)c1cc2cccc(NC(C)=C3C(=O)CC(c4ccccc4)CC3=O)c2o1 (stereo not drawn) [Compound 20]
Response: 5.80

Query: Any idea what pIC50 was measured for CNC(=O)c1cc2cccc(NC(C)=C3C(=O)CC(c4ccccc4)CC3=O)c2o1 (stereo not drawn) [Compound 21] ?
Response: 4.85

Query: Fill in the blank: the reported pIC50 of COCc1cc2cccc(NC(C)=C3C(=O)CC(c4ccccc4)CC3=O)c2o1 (stereo not drawn) [Compound 27] is ____.
Response: 7.80

Query: Data request, read-out pIC50, for CC(Nc1cccc2cc(COCCCO)oc12)=C1C(=O)CC(c2ccccc2)CC1=O (stereo not drawn) [Compound 28]
Response: 7.42

Query: Requested field: pIC50. Item: CC(Nc1cccc2cc(C)oc12)=C1C(=O)CC(c2ccccc2)CC1=O (stereo not drawn) [Compound 14]
Response: 7.19

----------
system: CEM cells; assay: Anti-proliferative activity, CEM lymphoblastic leukemia cells (Coulter counting); format: cell-based; conditions: Homo sapiens, CCRF-CEM, 96 h, read-out: Tumor cells IC50 CEM
valueKind: pIC50
Quick note: pIC50 means taking -log10 of the concentration in moles per liter.

Query: Value lookup for pIC50; key = CCOc1ccccc1NC(C)=C1C(=O)CC(c2ccccc2)CC1=O (centres unmarked) [Compound 8]
Response: 6.72

Query: For the compound COc1ccc(/C=C\c2cc(OC)c(OC)c(OC)c2)cc1OP(=O)(O)O [CA-4P, reference compound] , what pIC50 is on record?
Response: 7.96
